test system: Escherichia coli; assay: MIC/MBC by broth dilution, pure ILs; assay type: cell-based; settings: 24 h, NI = no inhibition at IL maximum concentration used (1000 µM), read-out: MIC
Classify: Yes when MIC is strictly less than 200 µM; No when MIC is not.

The examples below pair each entry with its known result.
{"columns": ["smiles.data", "tested.system", "assigned.label"],
 "data": [
  ["CCCCCCCCCCn1cc[n+](C)c1.F[B-](F)(F)F", "Escherichia coli", "No"],
  ["CCCCCCCCCCCCCC[n+]1ccn(C)c1.COC(=O)c1cc(C(=O)OC)cc(S(=O)(=O)[O-])c1", "Escherichia coli", "Yes"],
  ["CCCCCCCCCCCCCCCCCCCC[n+]1ccn(C)c1.F[B-](F)(F)F", "Escherichia coli", "No"],
  ["CCCCCCCCCCCCCCCC[n+]1ccn(C)c1.COC(=O)c1cc(C(=O)OC)cc(S(=O)(=O)[O-])c1", "Escherichia coli", "Yes"]
]}

Qu. Criterion: MIC strictly below 200 µM. Is it met by CCCCCCCCC[n+]1ccn(C)c1.COC(=O)c1cc(C(=O)OC)cc(S(=O)(=O)[O-])c1 ?
Ans. No

Qu. Criterion: MIC strictly below 200 µM. Is it met by CCCCCCCCCCCCCCCCCC[n+]1ccn(C)c1.F[B-](F)(F)F ?
Ans. Yes

Qu. Criterion: MIC strictly below 200 µM. Is it met by CCCCCCCCCCCCCC[n+]1ccn(C)c1.F[B-](F)(F)F ?
Ans. Yes

Qu. Criterion: MIC strictly below 200 µM. Is it met by CCCCCCCCCCCCCCCCCC[n+]1ccn(C)c1.COC(=O)c1cc(C(=O)OC)cc(S(=O)(=O)[O-])c1 ?
Ans. No

Qu. Criterion: MIC strictly below 200 µM. Is it met by CCCCCCCCCCCCCCCC[n+]1ccn(C)c1.F[B-](F)(F)F ?
Ans. Yes

Qu. Criterion: MIC strictly below 200 µM. Is it met by CCCCCCCCCCCCn1cc[n+](C)c1.F[B-](F)(F)F ?
Ans. Yes

Qu. Criterion: MIC strictly below 200 µM. Is it met by CCCCCCCCC[n+]1ccn(C)c1.F[B-](F)(F)F ?
Ans. No

Qu. Criterion: MIC strictly below 200 µM. Is it met by CCCCCCCCCC[n+]1ccn(C)c1.COC(=O)c1cc(C(=O)OC)cc(S(=O)(=O)[O-])c1 ?
Ans. No

meta.source: paper PMC11125126
